Molecular target: T1, PSMW39, human PSMA ECD (Lys44-Ala750), N-6xHis (human, UniProt Q04609 44-750)
T1 construct: Made in Expi-CHO cells; also called PSMW39.002; recombinant human ECD
T1 sequence (Q04609 other isoform, or with tags, fused parts or gaps): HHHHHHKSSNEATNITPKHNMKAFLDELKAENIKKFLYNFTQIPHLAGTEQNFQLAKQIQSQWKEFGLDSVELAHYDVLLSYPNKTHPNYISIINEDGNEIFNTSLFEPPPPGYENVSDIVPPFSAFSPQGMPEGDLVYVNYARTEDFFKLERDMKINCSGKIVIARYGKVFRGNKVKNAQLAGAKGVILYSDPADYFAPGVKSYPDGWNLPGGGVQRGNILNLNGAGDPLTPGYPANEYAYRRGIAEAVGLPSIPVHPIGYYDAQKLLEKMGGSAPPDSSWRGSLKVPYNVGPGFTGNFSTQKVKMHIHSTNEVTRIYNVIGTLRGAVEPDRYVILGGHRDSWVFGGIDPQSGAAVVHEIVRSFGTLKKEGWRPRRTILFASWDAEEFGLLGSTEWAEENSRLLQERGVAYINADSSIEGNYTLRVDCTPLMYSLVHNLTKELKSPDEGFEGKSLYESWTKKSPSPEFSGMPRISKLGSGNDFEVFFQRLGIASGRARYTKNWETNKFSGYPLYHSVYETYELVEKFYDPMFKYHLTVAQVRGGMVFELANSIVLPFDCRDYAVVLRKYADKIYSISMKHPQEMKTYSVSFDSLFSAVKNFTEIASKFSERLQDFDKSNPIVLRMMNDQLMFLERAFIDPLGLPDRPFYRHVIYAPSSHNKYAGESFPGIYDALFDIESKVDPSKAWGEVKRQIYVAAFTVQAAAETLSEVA
Experiment: SPR (Biacore 8K), antibody captured on goat anti-Fc C1 chip, PSMA ECD as analyte, 1:1 Langmuir fit
readout_label: kon (M⁻¹ s⁻¹)
Numbers only here, please. The scale is M⁻¹ s⁻¹.

Before answering, review these 2 worked examples.
PSMB1113 (antibody, human IgG1, kappa, V domains shown, huIgG1, kappa light chain) VH: EVQLVESGGGLVKPGGSLRLSCAASGFTLSIYSMNWVRQAPGKGLEWVSSISSSSSYIFYADSVKGRFTISRDNAKNSLFLQMNSLRAEDTAVYYCARSSYGADYWGQGTLVTVSS VL: EIVMTQSPSSLSASVGDRVTITCRASQDITNFLAWYQQKPGKVPKLLIYTASTLQSGVPSRFSGSGSGTDFTLTISSLQPEDVATYYCQKYNSAPLTFGGGTKLEIKR	57300
PSMB1157 (antibody, human IgG1, lambda, V domains shown, huIgG1, lambda light chain) VH: EVQLVESGGGVVQPGRSLRLSCAASVRTFSGYGMHWVRQVPGKGLEWVAVISYDGSNRYYADSVKGRFTISRDNSKNTLYLQMNSLRTEDTAVYYCARDGNWGSLDLYFDLWGRGTLVTVSS VL: QSVLTQPPSVSGAPGQRVTISCTGSSSNIGADYDVHWYQQLPGTAPKLLIYVNNNRPSGVPDRFSGSRSGTSASLAITGLQADDEADYYCQSYDNTLSGVVFGGGTKLTVLG	194000

Moving on to the next binder.
Which measured kon value corresponds to PSMB1195 (antibody, human IgG1, kappa, V domains shown, huIgG1, kappa light chain) VH: EVQLVESGGGLVKPGGSLRLSCAASGFTFSSYSLNWVRQAPGKGLEWVSSISSSSSYISYADAVKGRFTISRDNAKNSLYLQMNSLRAEDTAVYYCARDRGFLEDYYYYYGMDVWGQGTTVTVSS VL: DIVMTQSPSSVSASVGDRVTITCRASQGISNWLAWYQQKPGKAPKLLIYVASSLQSGVPSRFSGSGSGTDFSLTISSLQPEDFATYYCQQAYSFPLTFGGGTKVEIKR ?
10700
